src = patent US20240116985A1

Quick reference: IC50 of the listed items.
Measured Target: T1, full-length beta-Catenin (Uniprot ID P35222) (Homo sapiens (Human), UniProt P35222 2-781)
T1 construct: full-length beta-Catenin (Uniprot ID P35222); also called bCat; B-Catenin
T1 sequence: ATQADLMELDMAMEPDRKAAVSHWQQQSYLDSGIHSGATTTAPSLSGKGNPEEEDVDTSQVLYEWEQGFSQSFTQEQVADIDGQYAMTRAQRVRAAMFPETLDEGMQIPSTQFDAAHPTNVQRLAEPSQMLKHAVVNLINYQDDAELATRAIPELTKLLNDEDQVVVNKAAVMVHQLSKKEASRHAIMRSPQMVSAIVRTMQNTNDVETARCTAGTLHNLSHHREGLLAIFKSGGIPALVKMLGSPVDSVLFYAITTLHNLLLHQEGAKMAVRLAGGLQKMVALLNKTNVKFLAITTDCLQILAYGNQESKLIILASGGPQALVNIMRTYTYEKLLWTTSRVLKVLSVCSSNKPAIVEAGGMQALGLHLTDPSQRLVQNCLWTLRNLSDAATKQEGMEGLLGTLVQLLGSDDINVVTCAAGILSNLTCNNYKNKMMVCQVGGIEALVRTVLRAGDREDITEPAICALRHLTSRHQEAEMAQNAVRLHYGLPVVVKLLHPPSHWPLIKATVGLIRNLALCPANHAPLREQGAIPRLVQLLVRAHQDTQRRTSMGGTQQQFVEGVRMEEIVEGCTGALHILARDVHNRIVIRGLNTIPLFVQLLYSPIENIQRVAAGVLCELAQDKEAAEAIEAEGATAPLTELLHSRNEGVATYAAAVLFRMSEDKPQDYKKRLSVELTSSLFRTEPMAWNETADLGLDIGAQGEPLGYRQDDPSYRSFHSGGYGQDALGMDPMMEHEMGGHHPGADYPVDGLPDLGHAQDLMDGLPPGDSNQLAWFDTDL
Assay Info: fluorescence polarization competition; full-length beta-catenin + 5FAM-TCF4 10-53 probe, peptide titrated
Starred links: 1 amine or outer side, 2 acyl side, 3 side chain; linkers in the order of their positions; H or OH if unused. Positions of bridges follow the written chain, without caps; N, C: chain ends. Non-standard residues stand in square brackets, D forms with d. Primed or numbered codes have the meaning given here. *: point of attachment. PyrS2″ = (S)-3-amino-1-((pent-4-en-1-yloxy)carbonyl)pyrrolidine-3-carboxylic acid (stapling residue), C=CCCCOC(=O)N1CC[C@@](N[*:1])(C(=O)[*:2])C1; B5(4) = 2,2-bis(4-pentenyl)glycine = 2-amino-2-(pent-4-en-1-yl)hept-6-enoic acid (stitching residue), C=CCCCC(CCCC=C)(N[*:1])C(=O)[*:2]; B5(21) = 2-amino-2-(pent-4-en-1-yl)hept-6-enoic acid, bis(4-pentenyl)glycine (stitching residue), C=CCCCC(CCCC=C)(N[*:1])C(=O)[*:2]; 2Nal = N[C@@H](Cc1ccc2ccccc2c1)C(=O)O; Bta = N[C@@H](Cc1csc2ccccc12)C(=O)O; Lys(iPr) = CC(C)NCCCC[C@H](N)C(=O)O; αAllylPro = C=CC[C@@]1(C(=O)O)CCCN1; iPr = CC(C)*
Numbers only; they are read as nM.

Binder	Unit Spec	IC50
Ac-[αAllylPro]DA[B5(4)]NK[Lys(iPr)]AFL[PyrS2″]F[Bta]Q-NH2 (staple 1-4, 4-11, also called Ac-PL3-Asp-Ala-B5-Asn-Lys-iPrLys-Ala-Phe-Leu-PyrS2-Phe-BztA-Gln-NH2) [I-1380]	nM	10000

Q. What measured IC50 goes with Ac-[αAllylPro]DA[B5(4)]NQ[Lys(iPr)]AFL[PyrS2″]F[Bta]Q-NH2 (staple 1-4, 4-11, also called Ac-PL3-Asp-Ala-B5-Asn-Gln-iPrLys-Ala-Phe-Leu-PyrS2-Phe-BztA-Gln-NH2) [I-1379] ?
A. 1440

Q. Repeat for the following binder: Ac-[αAllylPro]DA[B5(4)]NT[Lys(iPr)]AFL[PyrS2″]F[Bta]Q-NH2 (staple 1-4, 4-11, also called Ac-PL3-Asp-Ala-B5-Asn-Thr-iPrLys-Ala-Phe-Leu-PyrS2-Phe-BztA-Gln-NH2) [I-1376]
A. 4210

Q. Thanks! And Ac-[αAllylPro]NA[B5(4)]DT[Lys(iPr)]AFL[PyrS2″]F[Bta]K-NH2 (staple 1-4, 4-11, also called Ac-PL3-Asn-Ala-B5-Asp-Thr-iPrLys-Ala-Phe-Leu-PyrS2-Phe-BztA-Lys-NH2) [I-1383] ?
A. 1660

Q. Another binder to look at: Ac-[αAllylPro]NA[B5(4)]DT[Lys(iPr)]AFL[PyrS2″]F[Bta]Q-NH2 (staple 1-4, 4-11, also called Ac-PL3-Asn-Ala-B5-Asp-Thr-iPrLys-Ala-Phe-Leu-PyrS2-Phe-BztA-Gln-NH2) [I-1382]
A. 2850

Q. Would you mind doing Ac-[αAllylPro]DA[B5(4)]NT[Lys(iPr)]AFL[PyrS2″]F[Bta]K-NH2 (staple 1-4, 4-11, also called Ac-PL3-Asp-Ala-B5-Asn-Thr-iPrLys-Ala-Phe-Leu-PyrS2-Phe-BztA-Lys-NH2) [I-1377] as well?
A. 1000

Q. Cool, now Ac-[αAllylPro]NA[B5(21)]DTK(iPr)AFL[PyrS2″]F[2Nal]Q-NH2 (staple 1-4, 4-11, also called Ac-PL3-Asn-Ala-B5-Asp-Thr-iPrLys-Ala-Phe-Leu-PyrS2-Phe-2NapA-Gln-NH2) [I-1387]
A. 6940
